FYI, the data here is from ChEMBL document CHEMBL3352151.

- TEST PROTOCOL: Cytotoxicity against human HaCaT cells assessed as cell viability at 500 ug/ml after 18 hrs by MTT assay
- Format: cell-based
- CONDITION CONTEXT: read-out: Activity
Square brackets hold non-standard residues; d marks the D form. Peptide text beside a SMILES is read from it. * marks the point of attachment. Stearoyl = CCCCCCCCCCCCCCCCCC(=O)*; Palmitoyl = CCCCCCCCCCCCCCCC(=O)*; Myristoyl = CCCCCCCCCCCCCC(=O)*; Orn = NCCC[CH](N)C(=O)O
Measured viability at 18 h, 500 ug/ml accompanies every entry in the list below.
REPORTED PROPERTY: viability at 18 h, 500 ug/ml

{"COMPOUND": "CCCCCCCCCCCCCCCC(=O)NC(CCCN)C(=O)NC(CCCN)C(=O)NC(CCCN)C(=O)NC(CCCN)C(=O)NC(CCCN)C(N)=O (stereo unspecified) (Palmitoyl-[Orn][Orn][Orn][Orn][Orn]-NH2; configuration not given here)", "REPORTED PROPERTY": "viability at 18 h, 500 ug/ml", "TEST VALUE": "> 80%"}
{"COMPOUND": "CCCCCCCCCCCCCC(=O)NC(CCCN)C(=O)NC(CCCN)C(=O)NC(CCCN)C(=O)NC(CCCN)C(N)=O (stereo unspecified) (Myristoyl-[Orn][Orn][Orn][Orn]-NH2; configuration not given here)", "REPORTED PROPERTY": "viability at 18 h, 500 ug/ml", "TEST VALUE": "> 80%"}
{"COMPOUND": "CCCCCCCCCCCCCCCC(=O)NC(CCCN)C(=O)NC(CCCN)C(=O)NC(CCCN)C(N)=O (stereo unspecified)", "REPORTED PROPERTY": "viability at 18 h, 500 ug/ml", "TEST VALUE": "> 80%"}
{"COMPOUND": "CCCCCCCCCCCCCCCCCC(=O)NC(CCCN)C(=O)NC(CCCN)C(=O)NC(CCCN)C(=O)NC(CCCN)C(=O)NC(CCCN)C(N)=O (stereo unspecified) (Stearoyl-[Orn][Orn][Orn][Orn][Orn]-NH2; configuration not given here)", "REPORTED PROPERTY": "viability at 18 h, 500 ug/ml", "TEST VALUE": "> 80%"}
{"COMPOUND": "CCCCCCCCCCCCCC(=O)NC(CCCN)C(=O)NC(CCCN)C(=O)NC(CCCN)C(N)=O (stereo unspecified)", "REPORTED PROPERTY": "viability at 18 h, 500 ug/ml", "TEST VALUE": "25%"}
{"COMPOUND": "CCCCCCCCCCCCCCCCCC(=O)NC(CCCN)C(=O)NC(CCCN)C(=O)NC(CCCN)C(N)=O (stereo unspecified)", "REPORTED PROPERTY": "viability at 18 h, 500 ug/ml", "TEST VALUE": "> 80%"}
